- studyTarget: T1, human amylin 3(a) receptor (human calcitonin receptor + RAMP-3) (human, UniProt P30988 25-474; O60896 24-148)
- T1 sequence (looked up) 1: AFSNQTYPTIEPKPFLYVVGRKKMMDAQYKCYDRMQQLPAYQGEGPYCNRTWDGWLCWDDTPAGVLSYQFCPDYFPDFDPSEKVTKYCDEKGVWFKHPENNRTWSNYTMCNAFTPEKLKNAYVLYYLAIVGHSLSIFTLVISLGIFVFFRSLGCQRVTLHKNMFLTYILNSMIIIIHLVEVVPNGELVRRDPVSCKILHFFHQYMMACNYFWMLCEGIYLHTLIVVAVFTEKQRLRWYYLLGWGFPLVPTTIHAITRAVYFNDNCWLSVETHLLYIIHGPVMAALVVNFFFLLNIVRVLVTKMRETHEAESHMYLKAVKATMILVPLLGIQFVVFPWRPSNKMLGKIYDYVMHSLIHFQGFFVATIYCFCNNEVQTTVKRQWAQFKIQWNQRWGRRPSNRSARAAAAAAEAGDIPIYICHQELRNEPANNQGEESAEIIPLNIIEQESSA
- T1 sequence (looked up) 2: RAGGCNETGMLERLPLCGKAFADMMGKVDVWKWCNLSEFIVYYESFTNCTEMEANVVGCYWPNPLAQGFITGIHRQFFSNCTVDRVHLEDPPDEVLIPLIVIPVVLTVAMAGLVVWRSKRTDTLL
- assaySummary: cell-based or functional assay
Starred links: 1 amine or outer side, 2 acyl side, 3 side chain; linkers in the order of their positions; H or OH if unused. Positions of bridges follow the written chain, without caps; N, C: chain ends. Groups on a side chain read outwards from the residue. No end group written: not given here. *: point of attachment. C20 diacid = O=C(O)CCCCCCCCCCCCCCCCCCC(=O)*; 19‑carboxyheptadecanoyl = not defined here; γGlu = O=C(O)[C@H](CCC(=O)[*:2])N[*:1]; AEEA = NCCOCCOCC(=O)O
outcomeMeasure: Amylin receptor human EC50 (nM)

{19‑carboxyheptadecanoyl-γGlu-AEEA-AEEA}-KCNTATCATQRLAEFLHHSSKNFGPILPPTNVGSNTP-NH2 (disulfide 2-7; reading uncertain; also: printed as N-alpha-[2-(2-{2-[2-(2-{2-[(S)-4-Carboxy-4-(19-carboxyheptadecanoylamino)butyrylamino]ethoxy}ethoxy)acetylamino]ethoxy}ethoxy)acetyl]-[Glu14,His17,Lys21,Pro37]-pramlintide)    0.071
{C20 diacid-γGlu}-EKCNTATCATQRLAEFLHHSSNNFGPILPPTNVGSNTY-NH2 (disulfide 3-8; not fully specified; printed as N-alpha-[(S)-4-Carboxy-4-(19-carboxynonadecanoylamino)butyryl]-Glu-[Glu14,His17]-pramlintide) [N-alpha-[(S)-4-Carboxy-4-(19-carboxynonadecanoylamino)butyryl]-Glu-[Glu14,His17]-pramlintide]    0.13
KCNTATCATQRLAEFLVHSSK([AEEA-AEEA-γGlu-19‑carboxyheptadecanoyl])NFGPILPSTNVGSHTY-NH2 (disulfide 2-7)    1.09
{19‑carboxyheptadecanoyl-γGlu-AEEA-AEEA}-KCNTATCATQRLAEFLHHSSENFGPILPPTNVGSNTP-NH2 (disulfide 2-7; reading uncertain; also: printed as N-alpha-[2-(2-{2-[2-(2-{2-[(S)-4-Carboxy-4-(19-carboxyheptadecanoylamino)butyrylamino]ethoxy}ethoxy)acetylamino]ethoxy}ethoxy)acetyl]-[Glu14,His17,Glu21,Pro37]-pramlintide)    0.203
KCNTATCATQRLAEFLHHSSK([AEEA-AEEA-γGlu-19‑carboxyheptadecanoyl])NFGPILSSTNVGSHTY-NH2 (disulfide 2-7)    1.03
KCNTATCATQRLAEFLVHSSK([AEEA-AEEA-γGlu-19‑carboxyheptadecanoyl])NFGPILSSTNVGSHTY-NH2 (disulfide 2-7)    0.858

src = patent US20130005646A1
